B1: EHEE_rd3_0053 (parent)
chain: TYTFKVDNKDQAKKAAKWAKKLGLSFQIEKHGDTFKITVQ

Variants of: B1
method.description: folding stability dG (cDNA display proteolysis); higher = more stable
conditions.used: PBS, room temperature
Each record gets a class by folding stability dG: one (below 0.7 kcal/mol), two (0.7 kcal/mol to below 2 kcal/mol), three (2 kcal/mol or more)

These recorded examples may help you get a feel for the data.
Request: Lab note: sort D10H into the matching folding stability dG band.
Result: three

Request: Class for T34D ?
Result: two

Request: Band for the recorded folding stability dG of K9P ?
Result: three

Request: Place this variant in its band: G23H
Result: two

Request: Please indicate the class for G23T based on its folding stability dG.
Result: one

Others:
Request: State the band of K21D
Result: two

Request: Form field 'band' for A12M
Result: three

The measured values listed here are drawn from the MegaScale stability set (Tsuboyama et al. 2023).
